List of IC50 values.
# Subject Of Test: NMDA-receptor subtype 2B (Rattus norvegicus, UniProt P35439+Q00960)
# Construct: Membranes were prepared by homogenization of the whole brain minus cerebellum and medulla oblongata
# Sequence (Q00960 27-1482, other chains not shown): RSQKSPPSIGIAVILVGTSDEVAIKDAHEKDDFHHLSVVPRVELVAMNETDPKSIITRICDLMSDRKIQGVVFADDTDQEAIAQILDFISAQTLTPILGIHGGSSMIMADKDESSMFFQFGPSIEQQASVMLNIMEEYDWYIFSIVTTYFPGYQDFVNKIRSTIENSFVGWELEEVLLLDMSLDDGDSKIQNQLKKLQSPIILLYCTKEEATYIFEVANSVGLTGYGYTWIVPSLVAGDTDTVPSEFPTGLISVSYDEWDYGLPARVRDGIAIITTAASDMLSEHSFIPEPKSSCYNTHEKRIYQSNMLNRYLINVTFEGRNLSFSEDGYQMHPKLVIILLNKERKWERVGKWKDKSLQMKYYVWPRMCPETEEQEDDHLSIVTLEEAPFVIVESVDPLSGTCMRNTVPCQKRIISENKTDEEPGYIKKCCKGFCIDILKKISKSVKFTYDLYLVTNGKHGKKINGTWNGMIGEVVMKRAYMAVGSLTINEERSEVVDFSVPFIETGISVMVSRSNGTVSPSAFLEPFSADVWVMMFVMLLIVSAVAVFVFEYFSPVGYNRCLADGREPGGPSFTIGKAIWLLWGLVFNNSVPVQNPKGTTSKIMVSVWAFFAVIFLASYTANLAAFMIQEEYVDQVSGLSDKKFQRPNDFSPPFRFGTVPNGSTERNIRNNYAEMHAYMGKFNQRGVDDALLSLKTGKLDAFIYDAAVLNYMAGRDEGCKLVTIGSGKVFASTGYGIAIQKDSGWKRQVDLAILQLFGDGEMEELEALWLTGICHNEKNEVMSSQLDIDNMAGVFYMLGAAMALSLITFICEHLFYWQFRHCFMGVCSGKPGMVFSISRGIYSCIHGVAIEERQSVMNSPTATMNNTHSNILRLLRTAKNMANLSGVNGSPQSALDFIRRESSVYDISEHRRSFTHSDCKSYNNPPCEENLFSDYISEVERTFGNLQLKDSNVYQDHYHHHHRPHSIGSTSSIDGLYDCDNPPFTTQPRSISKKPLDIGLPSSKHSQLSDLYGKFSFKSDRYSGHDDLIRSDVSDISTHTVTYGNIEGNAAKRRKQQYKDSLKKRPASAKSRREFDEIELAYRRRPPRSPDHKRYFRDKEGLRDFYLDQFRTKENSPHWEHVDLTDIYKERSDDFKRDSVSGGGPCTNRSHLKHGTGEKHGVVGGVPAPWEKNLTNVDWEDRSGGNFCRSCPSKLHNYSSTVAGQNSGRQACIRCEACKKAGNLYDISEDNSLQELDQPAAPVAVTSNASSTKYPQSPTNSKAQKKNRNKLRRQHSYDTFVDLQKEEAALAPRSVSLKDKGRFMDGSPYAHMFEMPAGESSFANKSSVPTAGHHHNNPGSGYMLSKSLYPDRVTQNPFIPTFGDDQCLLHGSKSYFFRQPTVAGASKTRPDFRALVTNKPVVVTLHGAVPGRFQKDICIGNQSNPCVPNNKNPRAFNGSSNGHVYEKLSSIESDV
# Protocol Description: 3H-Ro 25-6981 binding (displacement)
# Assay Setup: displacement of 5 nM 3H-Ro 25-6981 from rat brain membranes (whole brain minus cerebellum and medulla oblongata), 2 hours at 4° C., Tris-HCl 50 mM pH 7.4
Structures can show the parent of a compound that is named as a salt.
Measure Name: IC50 (nM)

# Compound, Recorded Number
rows = [
    ("CCc1cc(N)cc(C2=Cc3cc(Cl)ccc3CC2)n1.O=C(O)/C=C/C(=O)O [Example 36, fumarate]", 23),
    ("CCc1cc(N)cc(C2=Cc3ccccc3CC2)n1.O=C(O)/C=C/C(=O)O [Example 26, fumarate]", 38),
    ("Cl.NCc1cccc(C2=Cc3ccccc3CC2)n1 [Example 28, hydrochloride]", 38),
    ("Cc1cc(N)nc(/C=C/c2ccccc2)c1.Cl [Example 14, hydrochloride]", 10),
    ("Cl.Nc1ccnc(C2=Cc3ccccc3CC2)c1 [Example 19, hydrochloride]", 18),
    ("Cl.NCc1cccc(/C=C/c2ccccc2)n1 [Example 18, hydrochloride]", 80),
    ("Nc1ccnc(/C=C/c2ccccc2)c1 [Example 16, trans-2-Styryl-pyridin-4-yl-amine]", 40),
    ("Nc1ccnc(C2=Cc3cc(Cl)ccc3CC2)c1 [Example 30, fumarate]", 20),
]
